system: CP260; test: qHTS profiling for inhibitors of Plasmodium falciparum proliferation (AID 504749); further: nearly all actives have a fitted effect of over 60% in size; settings: P. falciparum in erythrocytes, SYBR Green DNA, 72 h; series mostly up to 12.8 µM
Results filed as inconclusive are left out. The source made the active and inactive calls. The call rests on the fitted dose curve; in most records, active means well fitted inhibition curve with a large enough effect; inconclusive means small, poorly fitted or top-dose-only effect; inactive means flat fitted curve, though single readings scatter.
observable: outcome

Recorded outcome, per entry:
CC(C)(C)NC[C@H](O)c1cc(O)cc(O)c1 = inactive
CCN[C@@H]1C[C@H](C)S(=O)(=O)c2sc(S(N)(=O)=O)cc21 = inactive
COc1c(O)cc2c(c1O)[C@@H]1O[C@@H](CO)[C@@H](O)[C@@H](O)[C@@H]1OC2=O = inactive
CN(N=O)C(=O)N[C@H]1[C@@H](O)[C@H](O)[C@H](CO)O[C@@H]1O = inactive
CN[C@@H](CC(C)C)C(=O)N[C@@H]1C(=O)N[C@H](CC(N)=O)C(=O)N[C@@H]2C(=O)N[C@H]3C(=O)N[C@H](C(=O)N[C@H](C(=O)O)c4cc(O)cc(O)c4-c4cc3ccc4O)[C@H](O)c3ccc(c(Cl)c3)Oc3cc2cc(c3O[C@H]2O[C@@H](CO)[C@@H](O)[C@@H](O)[C@@H]2O[C@@H]2C[C@](C)(N)[C@H](O)[C@H](C)O2)Oc2ccc(cc2Cl)[C@@H]1O = inactive

Value sought for every listed compound: outcome.
1. C[N+]1(C)CCC[C@@H](OC(=O)C(O)(c2ccccc2)c2ccccc2)C1
2. O=C(c1ccccc1)c1ccc2n1CC[C@H]2C(=O)O

Response:
1: inactive; 2: inactive

* * *

Record form. Attribute: Potency. Fill in for each entry.
biological target: Glucocorticoid receptor (Homo sapiens) (UniProt P04150); test: GR-GFP Redistribution (AID 450); conditions: U2OS GR-GFP nuclear translocation, laser cytometry, 2 h; further: potency means the concentration at half of the fitted maximal effect
Sequence (P04150 whole entry, looked up): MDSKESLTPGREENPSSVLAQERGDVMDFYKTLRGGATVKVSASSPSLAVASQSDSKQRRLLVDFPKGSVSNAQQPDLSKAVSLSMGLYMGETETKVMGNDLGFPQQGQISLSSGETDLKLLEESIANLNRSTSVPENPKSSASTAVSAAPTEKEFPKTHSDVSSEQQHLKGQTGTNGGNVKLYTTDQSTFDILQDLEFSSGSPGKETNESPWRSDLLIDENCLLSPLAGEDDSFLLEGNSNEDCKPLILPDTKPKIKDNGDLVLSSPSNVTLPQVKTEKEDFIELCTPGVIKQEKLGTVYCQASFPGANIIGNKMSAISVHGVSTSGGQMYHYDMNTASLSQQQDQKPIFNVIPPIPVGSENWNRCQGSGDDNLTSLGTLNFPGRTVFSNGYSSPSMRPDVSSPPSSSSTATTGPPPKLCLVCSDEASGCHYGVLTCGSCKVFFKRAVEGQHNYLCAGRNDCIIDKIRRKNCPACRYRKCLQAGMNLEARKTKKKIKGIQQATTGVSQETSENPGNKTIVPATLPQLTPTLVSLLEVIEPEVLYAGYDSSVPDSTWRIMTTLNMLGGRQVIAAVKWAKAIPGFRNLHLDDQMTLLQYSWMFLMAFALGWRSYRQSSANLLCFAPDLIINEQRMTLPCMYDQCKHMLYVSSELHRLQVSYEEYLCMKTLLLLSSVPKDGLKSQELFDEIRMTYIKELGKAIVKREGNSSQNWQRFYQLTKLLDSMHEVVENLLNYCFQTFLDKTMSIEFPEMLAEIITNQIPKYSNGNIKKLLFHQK
The source made the active and inactive calls.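 The calls were made as follows: active = compounds whose dose series gives a full or clear partial fitted curve of increased nuclear translocation; inconclusive = weak partial curve or effect only at the top dose; inactive = no dose-dependent translocation response.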

Quick request: Potency for each listed item, please.
1. Clc1ccccc1-c1nc(NCCN2CCOCC2)c2ccccc2n1
2. CN(Cc1ccco1)c1cc(-c2cccnc2)ncn1
3. COc1ccc(-c2nc3cnc(N(C)C)nc3n(CCC#N)c2=O)cc1
4. COc1ncc2nc(C)c(=O)n(Cc3cccs3)c2n1
5. COc1ccc(Oc2ncc3nc(-c4ccc(F)cc4)c(=O)n(C4CC4)c3n2)cc1
6. COc1cccc(Nc2ncc3nc(-c4cccs4)c(=O)n(Cc4cccs4)c3n2)c1

Response:
["> 46 µM (inactive)", "> 46 µM (inactive)", "> 9.22 µM (inactive)", "> 9.22 µM (inactive)", "> 9.22 µM (inactive)", "> 9.22 µM (inactive)"]

Hey, quick one: what's Potency for each of these?
1. CN(C)c1nc(-c2ccccc2C(F)(F)F)nc2ccccc12
2. C[C@H]1NC(=O)NC1=O
3. Cc1noc(C)c1-c1nccc(NCCN2CCOCC2)n1
4. CN(C)c1ccc(-c2cncnc2Nc2ccccc2)cc1
5. COc1ccc(CNc2ncnc3ccc(-c4ccc(C(=O)N(C)C)cc4)cc23)c(OC)c1
6. COc1ccc(Oc2ncc3nc(-c4ccccc4)c(=O)n(Cc4cccs4)c3n2)cc1
7. c1csc(CNc2ccnc(-c3ccc4c(c3)OCO4)n2)c1

Response:
1. > 46 µM (inactive)
2. > 20.6 µM (inactive)
3. > 46 µM (inactive)
4. > 46 µM (inactive)
5. > 46 µM (inactive)
6. > 9.22 µM (inactive)
7. > 46 µM (inactive)

Hi, could you look up Potency for each item in my list?
1. CCNc1ncc2nc(-c3ccccc3)c(=O)n(Cc3ccc(F)cc3)c2n1
2. Cc1cccc(CNc2cc(-c3ccc(N(C)C)cc3)ncn2)c1
3. Cn1c(=O)c(-c2cc(F)cc(F)c2)nc2cnc(Oc3cccc(Cl)c3)nc21
4. CCNc1ncc2nc(-c3cc(F)cc(F)c3)c(=O)n(-c3ccc(OC)cc3)c2n1
5. CCNc1ncc2nc(-c3ccc(Cl)cc3)c(=O)n(C)c2n1

Response:
1. > 9.22 µM (inactive)
2. > 46 µM (inactive)
3. > 9.22 µM (inactive)
4. > 9.22 µM (inactive)
5. > 9.22 µM (inactive)

List Potency for every entry below, keeping the order given.
1. COC(=O)C1=C(C)NC(C)=C(C(=O)OCCSc2ccccc2)[C@@H]1C
2. c1nc(NC2CC2)c2cc(-c3ccoc3)ccc2n1
3. COc1ccccc1CNc1ccnc(-c2c(C)noc2C)n1
4. Clc1ccccc1-c1nc(NC2CCNCC2)c2ccccc2n1
5. COc1ccc(-c2nc3cnc(OC)nc3n(-c3ccccc3)c2=O)cc1

Response:
> 46 µM (inactive)
> 46 µM (inactive)
> 46 µM (inactive)
> 46 µM (inactive)
> 9.22 µM (inactive)

I would be grateful if you could provide Potency for each of the following entries.
1. Cc1nc2cnc(Nc3ccccc3)nc2n(CCc2ccccc2)c1=O
2. O=c1c(-c2cccc(Cl)c2)nc2cncnc2n1Cc1ccccc1Cl
3. COc1cccc(-c2cc(NCCc3c[nH]c4ccc(OC)cc34)ncn2)c1
4. COc1ccccc1-c1cc(-n2ccnc2)ncn1
5. CN(C)c1ncc2nc(-c3ccc(F)cc3)c(=O)n(C3CC3)c2n1
6. N[C@@H](C(=O)O)c1ccc(O)c(C(=O)O)c1
7. CN(C)Cc1ccccc1-c1cncnc1NCc1ccccc1
8. CN(C)c1ncc2nc(-c3ccc(Cl)cc3)c(=O)n(C3CC3)c2n1

Response:
1. > 9.22 µM (inactive)
2. > 9.22 µM (inactive)
3. > 46 µM (inactive)
4. > 46 µM (inactive)
5. > 9.22 µM (inactive)
6. > 46 µM (inactive)
7. > 46 µM (inactive)
8. > 9.22 µM (inactive)

Please state Potency for every compound in the list that follows.
1. Cc1c(CC(C)(C)C(=O)O)n(Cc2ccc(Cl)cc2)c2ccc(F)cc12
2. CN(C)Cc1ccccc1-c1nc(NC2CC2)c2ccccc2n1
3. N#Cc1cccc(-c2nccc(-n3ccnc3)n2)c1
4. c1ccc(Nc2ncnc3ccc(-c4cccnc4)cc23)cc1
5. N#Cc1cccc(-c2nc3cnc(N4CCNCC4)nc3n(C3CC3)c2=O)c1
6. CCNc1ncc2nc(-c3ccccc3)c(=O)n(C)c2n1
7. COc1cccc(Cn2c(=O)c(-c3cc(F)cc(F)c3)nc3cnc(N4CCNCC4)nc32)c1

Response:
["> 46 µM (inactive)", "> 46 µM (inactive)", "> 46 µM (inactive)", "> 46 µM (inactive)", "> 9.22 µM (inactive)", "> 9.22 µM (inactive)", "> 9.22 µM (inactive)"]

Would you mind listing Potency for each of the following compounds?
1. CN(C)c1ncc2nc(-c3ccc(F)cc3)c(=O)n(-c3ccccc3)c2n1
2. CN1CCN(c2ncc3nc(-c4cn(C)c5ccccc45)c(=O)n(-c4ccccc4)c3n2)CC1
3. N#Cc1cccc(-c2nccc(NCc3ccccc3)n2)c1
4. CN1CCN(c2ncnc3ccc(-c4ccoc4)cc23)CC1
5. CC(=O)NCCNc1nc(-c2ccc3c(c2)OCO3)nc2ccccc12
6. Cc1nc2cnc(N3CCNCC3)nc2n(C2CC2)c1=O
7. COc1ccc2[nH]cc(CCNc3ccnc(-c4ccccc4C)n3)c2c1
8. COc1cccc(-c2cncnc2Nc2ccccc2)c1

Response:
> 9.22 µM (inactive)
> 9.22 µM (inactive)
> 46 µM (inactive)
> 46 µM (inactive)
> 46 µM (inactive)
> 9.22 µM (inactive)
> 46 µM (inactive)
> 46 µM (inactive)

// sample `CN1CCN(c2ncc3ncc(=O)n(CCc4ccccc4)c3n2)CC1` , its Potency was > 9.22 µM (inactive)
